From: PubChem BioAssay (NCI)

# Tested on: OVCAR-3 ovarian
# TEST SUMMARY: NCI-60 one-dose screen, 48 h (100 = growth as untreated, 0 = no growth, -100 = all killed)
# MEASUREMENT CONTEXT: 10 µM unless noted
Compounds without any hit were thinned out: in the full panel of roughly 83,000, 20% have a hit.
Reported growth values for the following molecules.
API: value field is a number in %; no unit string.

Which value of growth has been reported for `C/C(=N\N=C(/C)c1cccc([N+](=O)[O-])c1)c1cccc([N+](=O)[O-])c1` in the records?
58.1

Which value of growth has been reported for `COC(=O)c1cccc([N+](=O)[O-])c1` in the records?
108

Which value of growth has been reported for C=COC(=O)CCOCC(CC)CCCC (configuration not stated) in the records?
98

Which value of growth has been reported for `Oc1cccc(CNC2CCCCC2)c1` in the records?
119

Which value of growth has been reported for COC(c1ccc2c(c1)OCO2)C(C)Br (configuration not stated) in the records?
110

Which value of growth has been reported for `C/C(=N\O)c1ccccn1` in the records?
106

Which value of growth has been reported for `COC(=O)c1ccc([N+](=O)[O-])c(C)c1` in the records?
105
